IC50 values for the compounds below.
tested on: HEK293; assay: cells; type: ADME, cell-based; conditions: Homo sapiens, HEK293, 72 h

Examples with answers:
| Substance Smiles | Endpoint Value |
| --- | --- |
| Cc1ccc(S(=O)(=O)Nc2cc(SCC(=O)O)c(O)c3ccccc23)cc1 | 8.9 µM |
| Cc1ccc(S(=O)(=O)Nc2cc(SCC(=O)O)cc3c2[nH]c2ccccc23)cc1 | > 100 µM |
| CCOC(=O)COc1cc(NS(=O)(=O)c2ccc(C)cc2)c2[nH]c3ccccc3c2c1 | > 100 µM |

Return IC50 measured with HEK293 given this compound: Cc1ccc(S(=O)(=O)Nc2cc(SCC(=O)O)c(O)c3c2[nH]c2ccccc23)cc1
> 100 µM

Return IC50 measured with HEK293 given this compound: CC(=O)Nc1ccc(S(=O)(=O)Nc2cc(OCc3nnc(C)o3)cc3c2[nH]c2ccccc23)cc1
> 100 µM

Return IC50 measured with HEK293 given this compound: Cc1ccc(S(=O)(=O)Nc2cc(OCC(=O)O)cc3c2[nH]c2ccccc23)cc1
> 100 µM

Where do the numbers come from? From ChEMBL document CHEMBL4364288.
